Molecular target: BaF3 (EGFR Del19/C797S) (Homo sapiens, UniProt P00533, C797S, cells depend on it, form not given)
Construct: BaF3 (EGFR Del19/C797S)|DC|RPMI1640 + 10% FBS
Sequence (P00533 with tags, fused parts or gaps DEL746-750/C797S, form open): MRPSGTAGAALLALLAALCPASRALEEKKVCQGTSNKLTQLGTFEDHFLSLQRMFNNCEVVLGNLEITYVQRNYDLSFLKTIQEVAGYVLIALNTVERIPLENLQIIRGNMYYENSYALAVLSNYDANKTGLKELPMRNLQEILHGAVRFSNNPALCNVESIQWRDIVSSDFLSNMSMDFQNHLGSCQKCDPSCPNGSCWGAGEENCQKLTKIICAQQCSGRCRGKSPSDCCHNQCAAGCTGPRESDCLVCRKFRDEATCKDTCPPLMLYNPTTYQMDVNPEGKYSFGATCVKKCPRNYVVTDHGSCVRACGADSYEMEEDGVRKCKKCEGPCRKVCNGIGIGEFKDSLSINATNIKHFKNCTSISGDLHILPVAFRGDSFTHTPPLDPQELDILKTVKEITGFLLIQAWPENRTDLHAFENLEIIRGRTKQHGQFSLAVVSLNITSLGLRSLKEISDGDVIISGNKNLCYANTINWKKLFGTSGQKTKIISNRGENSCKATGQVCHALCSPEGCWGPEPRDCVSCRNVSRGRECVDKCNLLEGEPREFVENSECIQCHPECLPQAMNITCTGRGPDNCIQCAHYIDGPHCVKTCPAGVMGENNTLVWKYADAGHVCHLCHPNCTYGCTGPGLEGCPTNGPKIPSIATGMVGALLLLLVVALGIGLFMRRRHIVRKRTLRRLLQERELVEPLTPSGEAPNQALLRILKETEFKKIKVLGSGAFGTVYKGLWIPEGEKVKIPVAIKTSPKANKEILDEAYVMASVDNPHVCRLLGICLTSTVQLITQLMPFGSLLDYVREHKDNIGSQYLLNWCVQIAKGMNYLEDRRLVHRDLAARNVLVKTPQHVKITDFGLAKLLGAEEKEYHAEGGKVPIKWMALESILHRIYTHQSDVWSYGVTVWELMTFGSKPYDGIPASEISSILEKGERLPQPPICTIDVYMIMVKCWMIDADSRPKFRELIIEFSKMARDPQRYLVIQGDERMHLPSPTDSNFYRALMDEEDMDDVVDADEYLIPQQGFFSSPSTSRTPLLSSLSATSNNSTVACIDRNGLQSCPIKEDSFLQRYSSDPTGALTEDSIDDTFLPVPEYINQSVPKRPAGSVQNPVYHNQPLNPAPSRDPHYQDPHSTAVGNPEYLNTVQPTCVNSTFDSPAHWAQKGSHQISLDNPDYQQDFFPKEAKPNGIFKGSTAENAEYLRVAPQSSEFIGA
Experiment: Cell proliferation IC50 assay (Cell Titer GLO), BaF3 DC cells
Type: cell-based, mouse
Settings: Table 6, 72 h
pIC50: −log10 of the molar value.
Rule: pIC50 under 8 gives false (0), otherwise true (1).

COMPOUND	LABEL_CLASS
CCc1cc(Nc2ncc(Cl)c(Nc3ccccc3P(C)(C)=O)n2)c(OC)cc1N1CCC(N2CCC3(CC(Oc4ccc5c(c4)CN(C4CCC(=O)NC4=O)C5=O)C3)C2)CC1 (centres unmarked)	false (0)

Given the entry CCc1cc(Nc2ncc(Cl)c(Nc3ccccc3P(C)(C)=O)n2)c(OC)cc1N1CCC(N2CCC3(CC(Oc4cccc5c4CN(C4CCC(=O)NC4=O)C5=O)C3)C2)CC1 (centres unmarked) , answer whether its pIC50 meets or surpasses 8.
true (1)

----------
Target: BaF3 (EGFR Del19/C797S) (Homo sapiens, UniProt P00533, C797S, cells depend on it, form not given)
Construct: BaF3 (EGFR Del19/C797S)|DC|RPMI1640 + 10% FBS
Assay: Cell proliferation IC50 assay (Cell Titer GLO), BaF3 DC cells
Type: cell-based, mouse
Settings: Table 6, 72 h
Each entry below lists one item and its recorded IC50 value.
Your answer is read as nM, so omit the unit and give the number.

COMPOUND	IC50 (nM)
CCc1cc(Nc2ncc(Cl)c(Nc3ccccc3P(C)(C)=O)n2)c(OC)cc1N1CCC(N2CCN(C3(/C=C\c4cccc5c4CN(C4CCC(=O)NC4=O)C5=O)CC3)CC2)CC1 (stereo not shown)	13.7
CCc1cc(Nc2ncc(Cl)c(Nc3ccccc3P(C)(C)=O)n2)c(OC)cc1N1CCC(N2CCN(CCC#Cc3c(F)ccc4c3CN(C3CCC(=O)NC3=O)C4=O)CC2)CC1 (stereo not shown)	20.3
CCc1cc(Nc2ncc(Cl)c(Nc3ccccc3P(C)(C)=O)n2)c(OC)cc1N1CCC(N2CCN(CCCCCc3ccc4c(N5CCC(=O)NC5=O)nn(C)c4c3)CC2)CC1	15.8
CCc1cc(Nc2nc(Nc3ccccc3P(C)(C)=O)c3cc[nH]c3n2)c(OC)cc1N1CCC(N2CCN(CCOc3cccc4c3CN(C3CCC(=O)NC3=O)C4=O)CC2)CC1 (stereo not shown)	44
CCc1cc(Nc2ncc(Cl)c(Nc3ccccc3P(C)(C)=O)n2)c(OC)cc1N1CCC(N2CCN(CCOc3cccc4c3CN(C3CCC(=O)NC3=O)C4=O)CC2=O)CC1 (stereo not shown)	6.3
CCc1cc(Nc2ncc(-c3cnn(C)c3)c(Nc3ccccc3P(C)(C)=O)n2)c(OC)cc1N1CCC(N2CCN(Cc3ccc4c(c3)CN(C3CCC(=O)NC3=O)C4=O)CC2)CC1 (stereo not shown)	0.9
CCc1cc(Nc2ncc(-c3cc[nH]n3)c(Nc3ccccc3P(C)(C)=O)n2)c(OC)cc1N1CCC(N2CCN(CCOc3cccc4c3CN(C3CCC(=O)NC3=O)C4=O)CC2)CC1 (stereo not shown)	7.7
CCc1cc(Nc2nc(Nc3ccccc3P(C)(C)=O)c3cn[nH]c3n2)c(OC)cc1N1CCC(N2CCN(CCCCOc3cccc4c3CN(C3CCC(=O)NC3=O)C4=O)CC2)CC1 (stereo not shown)	2

Shift focus to the following entry.
Which IC50 is listed for CCCc1cc(Nc2ncc(Cl)c(Nc3ccccc3P(C)(C)=O)n2)c(OC)cc1N1CCC(N2CCN(CCC#Cc3cccc4c3CN(C3CCC(=O)NC3=O)C4=O)CC2)CC1 (stereo not shown) ?
6.6

----------
Below: a set of entries, each annotated with reported DC50.
Target: human EGFR-LTC (Homo sapiens, UniProt P00533, C797S/L858R/T790M)
Construct: expressed in transfected cells
Sequence (P00533 25-1210 T790M/C797S/L858R): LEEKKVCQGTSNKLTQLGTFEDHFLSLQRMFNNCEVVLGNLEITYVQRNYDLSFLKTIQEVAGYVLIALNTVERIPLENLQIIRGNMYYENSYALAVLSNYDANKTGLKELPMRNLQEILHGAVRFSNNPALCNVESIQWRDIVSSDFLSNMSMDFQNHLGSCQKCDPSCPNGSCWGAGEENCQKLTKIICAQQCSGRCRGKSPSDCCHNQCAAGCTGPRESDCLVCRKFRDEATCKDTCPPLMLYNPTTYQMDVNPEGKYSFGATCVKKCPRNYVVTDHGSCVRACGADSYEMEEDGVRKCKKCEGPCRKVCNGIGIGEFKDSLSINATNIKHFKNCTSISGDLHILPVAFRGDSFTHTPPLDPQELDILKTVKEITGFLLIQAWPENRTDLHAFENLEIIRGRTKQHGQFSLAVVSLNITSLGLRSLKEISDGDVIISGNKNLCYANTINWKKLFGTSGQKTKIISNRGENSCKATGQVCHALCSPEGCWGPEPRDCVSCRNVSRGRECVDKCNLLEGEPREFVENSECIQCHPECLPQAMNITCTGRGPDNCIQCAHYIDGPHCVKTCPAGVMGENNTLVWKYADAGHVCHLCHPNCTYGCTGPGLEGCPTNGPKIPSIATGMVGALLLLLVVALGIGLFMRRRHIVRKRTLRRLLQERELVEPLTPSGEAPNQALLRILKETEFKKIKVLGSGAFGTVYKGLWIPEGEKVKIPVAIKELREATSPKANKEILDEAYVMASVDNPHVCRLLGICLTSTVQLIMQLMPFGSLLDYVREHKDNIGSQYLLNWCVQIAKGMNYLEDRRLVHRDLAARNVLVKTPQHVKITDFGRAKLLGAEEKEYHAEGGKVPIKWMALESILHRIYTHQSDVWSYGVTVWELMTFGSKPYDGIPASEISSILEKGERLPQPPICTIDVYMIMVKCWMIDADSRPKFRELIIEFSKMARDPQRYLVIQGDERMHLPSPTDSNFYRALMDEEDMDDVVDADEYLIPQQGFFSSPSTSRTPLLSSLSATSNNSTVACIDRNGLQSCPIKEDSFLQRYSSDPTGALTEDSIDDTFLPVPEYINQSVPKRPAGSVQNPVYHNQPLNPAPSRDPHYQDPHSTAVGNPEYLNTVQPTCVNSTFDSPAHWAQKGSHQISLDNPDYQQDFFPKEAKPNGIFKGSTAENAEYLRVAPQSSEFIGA
Assay: EGFR protein abundance assay (Western blotting), EGFR-LTC
Format: cell-based
Details: Ba/F3 cells expressing human EGFR-LTC, 24 h, Western blot
Please state the figure in nM; there is no need to write the unit.

Some compounds with recorded DC50:
COMPOUND	DISPLAY_UNIT	DC50
CCc1cc(Nc2ncc(Cl)c(Nc3ccccc3P(C)(C)=O)n2)c(OC)cc1N1CCC(N2CCN(CCC#Cc3cccc4c3CN(C3CCC(=O)NC3=O)C4=O)CC2)CC1 (single isomer, unassigned) [Example E6]	nM	10.1
CCc1cc(Nc2ncc(Cl)c(Nc3ccccc3P(C)(C)=O)n2)c(OC)cc1N1CCC(N2Cc3ccc(Oc4cccc5c4CN(C4CCC(=O)NC4=O)C5=O)cc3C2)CC1 (centres unmarked)	nM	13.1
CCc1cc(Nc2ncc(Cl)c(Nc3ccccc3P(C)(C)=O)n2)c(OC)cc1N1CCC(N2CCN(CCOc3cccc4c3CN(C3CCC(=O)NC3=O)C4=O)CC2)CC1 (centres unmarked)	nM	2.13

Below: the item to evaluate.
Find the recorded DC50 belonging to CCc1cc(Nc2ncc(Cl)c(Nc3ccccc3P(C)(C)=O)n2)c(OC)cc1N1CCC(N2CCN(CCC#Cc3cccc4c3CN(C3CCC(=O)NC3=O)C4=O)CC2)CC1 (single isomer, unassigned) [Example E4] and report it.
6.26

----------
Biological target: BaF3 (EGFR Del19/C797S) (Homo sapiens, UniProt P00533, C797S, cells depend on it, form not given)
Construct: BaF3 (EGFR Del19/C797S)|DC|RPMI1640 + 10% FBS
Test: Cell proliferation IC50 assay (Cell Titer GLO), BaF3 DC cells
Type: cell-based, mouse
Conditions: Table 6, 72 h
TEST_READOUT: pIC50
// scale note: pIC50 = -log10(conc_M); give the bare number

MOLECULE	pIC50
COc1cc(N2CCC(N3CCN(CCCCOc4cccc5c4CN(C4CCC(=O)NC4=O)C5=O)CC3)CC2)c(C2CC2)cc1Nc1ncc(Cl)c(Nc2ccccc2P(C)(C)=O)n1 (centres unmarked) [Example E35]	8.05

I have this molecule here, CCc1cc(Nc2ncc(-n3cc(C)cn3)c(Nc3ccccc3P(C)(C)=O)n2)c(OC)cc1N1CCC(N2CCN(CCOc3ccc4c(c3)CN(C3CCC(=O)NC3=O)C4=O)CC2)CC1 (centres unmarked) [Example E68] , and I need its recorded pIC50.
7.73

For the molecule shown here, COc1cc(N2CCC(N3CCN(CCC#Cc4cccc5c4CN(C4CCC(=O)NC4=O)C5=O)CC3)CC2)c(C#N)cc1Nc1ncc(Cl)c(Nc2ccccc2P(C)(C)=O)n1 (centres unmarked) [Example E52] , give the reported pIC50.
7.82

Find the recorded pIC50 belonging to CCc1cc(Nc2ncc(Cl)c(Nc3ccc(F)cc3P(C)(C)=O)n2)c(OC)cc1N1CCC(N2CCN(CCOc3cccc4c3CN(C3CCC(=O)NC3=O)C4=O)CC2)CC1 (centres unmarked) [Example E124] and report it.
6.97

// query pIC50 value for entry CCc1cc(Nc2ncc(Cl)c(Nc3ccccc3P(C)(C)=O)n2)c(OC)nc1N1CCC(N2CCN(CCC#Cc3cccc4c3CN(C3CCC(=O)NC3=O)C4=O)CC2)CC1 (centres unmarked) [Example E41]
8.09

----------
Reported pIC50 is given for each of the following compounds.
System: BaF3 (EGFR L858R/T790M/C797S)
Experiment: Cell proliferation IC50 assay (Cell Titer GLO), BaF3 LTC cells
Type: cell-based
Settings: Mus musculus, Ba/F3 EGFR, Table 5, 72 h
Reminder that pIC50 is minus the log10 of a molar concentration.

Some solved entries appear below for comparison.
COMPOUND	SYSTEM_TESTED	pIC50
CCc1cc(Nc2ncc(Cl)c(Nc3ccccc3P(C)(C)=O)n2)c(OC)cc1N1CCC(N2CCN(CC#Cc3cccc4c3CN(C3CCC(=O)NC3=O)C4=O)CC2)CC1 (stereo not shown) [Example E25]	BaF3 (EGFR L858R/T790M/C797S)	7.24
COc1cc(N2CCC3(CCN(CCCC#Cc4cccc5c4CN(C4CCC(=O)NC4=O)C5=O)CC3)CC2)ccc1Nc1ncc(Cl)c(Nc2ccccc2P(C)(C)=O)n1 (stereo not shown) [Example C-1, reference compound]	BaF3 (EGFR L858R/T790M/C797S)	6.70
COc1cc(N2CCC(N3CCN(CC#Cc4cccc5c4CN(C4CCC(=O)NC4=O)C5=O)CC3)CC2)ccc1Nc1ncc(Cl)c(Nc2ccccc2P(C)(C)=O)n1 (stereo not shown) [Example C-3, reference compound]	BaF3 (EGFR L858R/T790M/C797S)	6.89

Could you now look at the following compound, please?
Please report the recorded pIC50 for CP(C)(=O)c1ccccc1Nc1nc(Nc2ccc(N3CCC(N4CCN(CCC#Cc5cccc6c5CN(C5CCC(=O)NC5=O)C6=O)CC4)CC3)c(Cl)c2)ncc1Cl (stereo not shown) [Example E17] .
7.81

----------
Target: BaF3 (EGFR Del19/C797S) (Homo sapiens, UniProt P00533, C797S, cells depend on it, form not given)
Construct: BaF3 (EGFR Del19/C797S)|DC|RPMI1640 + 10% FBS
Assay: Cell proliferation IC50 assay (Cell Titer GLO), BaF3 DC cells
Assay type: cell-based, mouse
Conditions: Table 6, 72 h
Here the recorded IC50 is given for each entry.
I'd appreciate it if you included the unit after the number.

Before answering, review these 3 worked examples.
COMPOUND	IC50
CCc1cc(Nc2ncc(Cl)c(Nc3ccccc3P(C)(C)=O)n2)c(OC)cc1N1CCC(N2CCN(CCC#Cc3ccc4c(c3)c(N3CCC(=O)NC3=O)nn4C)CC2)CC1	0.0791 µM
COc1cc(N2CCC(N3CCN(CCCCOc4cccc5c4CN(C4CCC(=O)NC4=O)C5=O)CC3)CC2)c(-c2cnn(C)c2)cc1Nc1ncc(Cl)c(Nc2ccccc2P(C)(C)=O)n1 (centres unmarked)	0.0056 µM
CCc1cc(Nc2ncc(Cl)c(Nc3ccccc3P(C)(C)=O)n2)c(OC)cc1N1CCC(N2CCN(CCOCCc3cccc4c3CN(C3CCC(=O)NC3=O)C4=O)CC2)CC1 (centres unmarked)	0.0065 µM

Quick check: IC50 of COc1cc(N2CCC(N3CCc4cc(Oc5cccc6c5CN(C5CCC(=O)NC5=O)C6=O)ccc4C3)CC2)c(C2CC2)cc1Nc1ncc(Cl)c(Nc2ccccc2P(C)(C)=O)n1 (centres unmarked) ?
0.0202 µM

What value of IC50 has been recorded for this entry: CCc1cc(Nc2nc(Nc3ccccc3P(C)(C)=O)c3cc[nH]c3n2)c(C(C)(C)O)cc1N1CCC(N2CCN(CCCCOc3cccc4c3CN(C3CCC(=O)NC3=O)C4=O)CC2)CC1 (centres unmarked)
0.124 µM
